B1: Ventral anterior homeobox 1, residues 102 to 157; numbered along this chain, Q5SQQ9 (parent)
chain: RTRTSFTAEQLYRLEMEFQRCQYVVGRERTELARQLNLSETQVKVWFQNRRTKQKK

Variants of: B1
Test: abundance fitness (aPCA) (normalised: wild type 0, dead -1); higher = more abundant; growth selection in yeast, the domain comes from the species named
Details: Homo sapiens
endpoint name: abundance fitness
Reply with the value as a number alone.

Solved entries:
variant annotation	abundance fitness
E9Q	-0.207
E28Y	-0.661
S39T	-0.218
L32A	-0.791
T30R	-0.429
C21A	-0.166

Req: For "T2P" , write its abundance fitness.
Resp: -0.098

Req: Write down abundance fitness measured for item "R3F"
Resp: 0.209

Req: Answer with reported abundance fitness of "V43F"
Resp: -0.765

Req: Provide abundance fitness value for the following variant: "T2S"
Resp: -0.074

Req: Using known records, supply abundance fitness for "R13C"
Resp: -0.161

# credit: the Human Domainome abundance scans (Beltran et al. 2025)
